# Test system: H1299 lung carcinoma
# method summary: Anchorage Dependent Growth Monolayer Assay (ADGMA), MTS readout
# Format: cell-based
# condition description: Homo sapiens, NCI-H1299, 72 h; 3-day exposure, H1299 cells; read-out: IC50 values (average ± S.D.) H1299
Labelling: IC50 reported below 400 nM becomes criterion met; at or above becomes criterion not met.

molecule	system name	assigned class
CO[C@@H](C(=O)N[C@H]1CC[C@@H](OC(=O)OCc2ccccc2)CNC1=O)[C@H](O)[C@@H](O)[C@H](O)/C=C/C(C)(C)C	H1299 lung carcinoma	criterion met
CO[C@@H](C(=O)N[C@H]1CC[C@@H](OC(=O)OCC(C)(C)C)CNC1=O)[C@H](O)[C@@H](O)[C@H](O)/C=C/C(C)(C)C	H1299 lung carcinoma	criterion met
CO[C@@H](C(=O)N[C@H]1CC[C@@H](OC(=O)OCCc2ccccc2)CNC1=O)[C@H](O)[C@@H](O)[C@H](O)/C=C/C(C)(C)C	H1299 lung carcinoma	criterion met
CO[C@@H](C(=O)N[C@H]1CC[C@@H](OC(=O)OC2CCCCC2)CNC1=O)[C@H](O)[C@@H](O)[C@H](O)/C=C/C(C)(C)C	H1299 lung carcinoma	criterion not met
COc1cccc2c1C(=O)c1c(O)c3c(c(O)c1C2=O)C[C@@](O)(C(=O)CO)C[C@@H]3O[C@H]1C[C@H](N)[C@H](O)[C@H](C)O1 [doxorubicin, reference compound]	H1299 lung carcinoma	criterion not met

Attention now turns to another entry.
Exercise: is_below(IC50, 400 nM) for CCCCCCCCCCOC(=O)O[C@@H]1CC[C@H](NC(=O)[C@H](OC)[C@H](O)[C@@H](O)[C@H](O)/C=C/C(C)(C)C)C(=O)NC1 ?
Solution: criterion not met
